Test: Chemical characteristics of composition A′, concentrated and diluted forms
Assay type: physicochemical
Assay Endpoint: logP

-- ask Which logP is reported for this compound? `C=C(C)[C@@H]1CCC(C)=C[C@H]1c1c(O)cc(CCCCC)cc1O`
-- reply ~6
